Value source: PubChem BioAssay (NCI)

- Test system: SNB-75 CNS
- method.summary: NCI-60 one-dose screen, 48 h (100 = growth as untreated, 0 = no growth, -100 = all killed)
- condition.notes: 10 µM unless noted
Compounds without any hit were thinned out: in the full panel of roughly 83,000, 20% have a hit.
measured.quantity: growth (%)
Record the value in %, omitting the unit from your answer.

Q: Reported growth for SNB-75 CNS, given "COc1ccc(/C=C2\CN(Cc3cn(CCCNc4ccnc5cc(Cl)ccc45)nn3)C/C(=C\c3ccc(OC)cc3)C2=O)cc1" ?
Result: 70.1

Q: Reported growth for SNB-75 CNS, given "COc1ccccc1/C=C/C(=O)/C=C/c1ccccc1O" ?
Result: 31.3

Q: Reported growth for SNB-75 CNS, given "Brc1ccc(SCN(CSc2ccc(Br)cc2)Cc2ccccc2)cc1" ?
Result: 66.4

Q: Reported growth for SNB-75 CNS, given "FC(F)(F)c1cc(CNc2nc(Cl)ncc2Br)cc(C(F)(F)F)c1" ?
Result: 66.6

Q: Reported growth for SNB-75 CNS, given "Nc1cc2[nH]c(=O)c3ccccc3c2cc1Br" ?
Result: 57

Q: Reported growth for SNB-75 CNS, given CCCCc1ccc(C(O)(CCN2CC3CCC(CC3)C2)c2ccccc2)cc1 (stereo not given) ?
Result: 116

Q: Reported growth for SNB-75 CNS, given "CN1CCN(c2nc(-c3ccncc3)nc3sc4c(c23)CCCCCC4)CC1" ?
Result: 14.5

Q: Reported growth for SNB-75 CNS, given "Cc1cc(NS(=O)(=O)c2ccc(NC(=O)COc3ccc(-c4cc5ccccc5[nH]4)cc3)cc2)no1" ?
Result: -12.2

Q: Reported growth for SNB-75 CNS, given "Cc1ccc2nc(NC(=O)CSC(=S)N3CCN(Cc4ccccc4)CC3)sc2c1" ?
Result: -93.2

Q: Reported growth for SNB-75 CNS, given "CCCOC(=O)c1ccc2c(c1)[N+](=O)C(C(=O)c1ccccc1)=C(C(F)(F)F)[N+]2=O" ?
Result: -98.5
